assay: log PR value (eq 2); type: ADME; conditions: octanol/water
property: Log PR

- record_smiles: "CCCc1c2nc(C(=O)[O-])cc(N)c2cc2c(=O)cc(C(=O)[O-])oc12.[Na+].[Na+]"
  property: "Log PR"
  readout_number: -1.25
- record_smiles: "CCCc1c2nc(C(=O)[O-])cc(NC)c2cc2c(=O)cc(C(=O)[O-])oc12.[Na+].[Na+]"
  property: "Log PR"
  readout_number: -1.91
- record_smiles: "CCCc1c2nc(C(=O)[O-])cc(N3CCCC3)c2cc2c(=O)cc(C(=O)[O-])oc12.[Na+].[Na+]"
  property: "Log PR"
  readout_number: -1.25
- record_smiles: "CCCc1c2nc(C(=O)[O-])cc(N(C)C)c2cc2c(=O)cc(C(=O)[O-])oc12.[Na+].[Na+]"
  property: "Log PR"
  readout_number: -1.2

----------
experiment: Dissociation constant (pKa2) using partition method; assay type: physicochemical; conditions: read-out: pKa2

- record_smiles: "CCCc1c2nc(C(=O)[O-])cc(NC)c2cc2c(=O)cc(C(=O)[O-])oc12.[Na+].[Na+]"
  pKa: 1.62

----------
experiment: Dissociation constant (pKa1) using partition method; type: physicochemical; details: read-out: pKa1

- record_smiles: "CCCc1c2nc(C(=O)[O-])cc(NC)c2cc2c(=O)cc(C(=O)[O-])oc12.[Na+].[Na+]"
  pKa: 0.5

----------
test: Dissociation constant using spectrophotometric method; type: physicochemical
property: pKa

- record_smiles: "CCCc1c2nc(C(=O)[O-])cc(Nc3ccccc3)c2cc2c(=O)cc(C(=O)[O-])oc12.[Na+].[Na+]"
  readout_number: 7.78
- record_smiles: "CCCCCNc1cc(C(=O)[O-])nc2c(CCC)c3oc(C(=O)[O-])cc(=O)c3cc12.[Na+].[Na+]"
  readout_number: 8.7
- record_smiles: "CCCc1c2nc(C(=O)[O-])cc(NCC)c2cc2c(=O)cc(C(=O)[O-])oc12.[Na+].[Na+]"
  readout_number: 8.64

----------
assay: Dissociation constant (eq 2); type: physicochemical; details: read-out: pK3

- record_smiles: "CCCc1c2nc(C(=O)[O-])cc(N)c2cc2c(=O)cc(C(=O)[O-])oc12.[Na+].[Na+]"
  pKa: 8.75
- record_smiles: "CCCc1c2nc(C(=O)[O-])cc(N3CCCC3)c2cc2c(=O)cc(C(=O)[O-])oc12.[Na+].[Na+]"
  pKa: 8.75
- record_smiles: "CCCc1c2nc(C(=O)[O-])cc(NC)c2cc2c(=O)cc(C(=O)[O-])oc12.[Na+].[Na+]"
  pKa: 8.63
- record_smiles: "CCCc1c2nc(C(=O)[O-])cc(N(C)C)c2cc2c(=O)cc(C(=O)[O-])oc12.[Na+].[Na+]"
  pKa: 8.26

----------
Each entry below carries its reported Log PR.
assay: Biological activity expressed as the Log potency ratio (PR) of the compound relative to a standard compound 63; assay type: ADME; settings: octanol/water

- compound: "CCCc1c2nc(C(=O)[O-])cc(N(C)C)c2cc2c(=O)cc(C(=O)[O-])oc12.[Na+].[Na+]"
  Log PR: -0.29
- compound: "CCCc1c2nc(C(=O)[O-])cc(Sc3ccccc3)c2cc2c(=O)cc(C(=O)[O-])oc12.[Na+].[Na+]"
  Log PR: 0.88
- compound: "CCCc1c2nc(C(=O)[O-])cc(O)c2cc2c(=O)cc(C(=O)[O-])oc12.[Na+].[Na+]"
  Log PR: 0.37
- compound: "CCCc1c2nc(C(=O)[O-])cc(C3OCCCO3)c2cc2c(=O)cc(C(=O)[O-])oc12.[Na+].[Na+]"
  Log PR: -0.75
- compound: "CCCCCNc1cc(C(=O)[O-])nc2c(CCC)c3oc(C(=O)[O-])cc(=O)c3cc12.[Na+].[Na+]"
  Log PR: -1.27
- compound: "CCCc1c2nc(C(=O)[O-])cc(C#N)c2cc2c(=O)cc(C(=O)[O-])oc12.[Na+].[Na+]"
  Log PR: 0.07
- compound: "CCCc1c2nc(C(=O)[O-])cc(Oc3ccccc3)c2cc2c(=O)cc(C(=O)[O-])oc12.[Na+].[Na+]"
  Log PR: 0.51
- compound: "CCCc1c2nc(C(=O)[O-])ccc2cc2c(=O)cc(C(=O)[O-])oc12.[Na+].[Na+]"
  Log PR: -1
- compound: "CCCc1c2nc(C(=O)[O-])cc(S(=O)Oc3ccccc3)c2cc2c(=O)cc(C(=O)[O-])oc12.[Na+].[Na+] (stereo unspecified)"
  Log PR: -0.27
- compound: "CCCc1c2nc(C(=O)[O-])cc(Nc3ccccc3)c2cc2c(=O)cc(C(=O)[O-])oc12.[Na+].[Na+]"
  Log PR: -0.15
- compound: "CCCc1c2nc(C(=O)[O-])cc(C(F)F)c2cc2c(=O)cc(C(=O)[O-])oc12.[Na+].[Na+]"
  Log PR: -0.23
- compound: "CCCc1c2nc(C(=O)[O-])cc(C(=O)[O-])c2cc2c(=O)cc(C(=O)[O-])oc12.[Na+].[Na+].[Na+]"
  Log PR: -1.27
- compound: "CCCc1c2nc(C(=O)[O-])cc(Cl)c2cc2c(=O)cc(C(=O)[O-])oc12.[Na+].[Na+]"
  Log PR: 0.04
- compound: "CCCc1c2nc(C(=O)[O-])cc(/C=N/NC(=O)c3ccccc3)c2cc2c(=O)cc(C(=O)[O-])oc12.[Na+].[Na+]"
  Log PR: -0.13
- compound: "CCCc1c2nc(C(=O)[O-])cc(SCC)c2cc2c(=O)cc(C(=O)[O-])oc12.[Na+].[Na+]"
  Log PR: 0.35
- compound: "CCCc1c2nc(C(=O)[O-])cc(NC(C)=O)c2cc2c(=O)cc(C(=O)[O-])oc12.[Na+].[Na+]"
  Log PR: -1.19

These measurements were taken from ChEMBL document CHEMBL1124264.
